B1: library; a variant is named by its letters at N, in order (parent)
chain: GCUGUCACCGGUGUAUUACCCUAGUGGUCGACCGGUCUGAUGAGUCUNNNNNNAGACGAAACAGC

variants of: B1; assay: FACS-Seq fitted mean relative fluorescence mCherry/BFP with ligand (log10 relative fluorescence); ligand: hypoxanthine (xanthine aptamer); ligand concentration (+) FACS-Seq: 5 mM; higher = higher reporter protein expression; details: HEK293T, ligand present: yes
measured-metric: FACS-Seq fitted mean (log10)
// keep it numeric: no unit symbol after the value

In: Please look at this variant and report its FACS-Seq fitted mean (log10): CGGUGU
Out: 0.586

In: Please look at this variant and report its FACS-Seq fitted mean (log10): CCAGCC
Out: -0.409

In: Please look at this variant and report its FACS-Seq fitted mean (log10): AACAAU
Out: 0.249

The reported measurements were obtained from the supplement of paper PMC6757056.
